Readout: melting point (°C)

1. COC(C)(CC(=O)Nc1cccc(OCc2ccccc2)c1)OC
2. CCN(CC)CCCN1C(=O)NC(Cc2c[nH]c3ccc(OC)cc23)C1=O (stereo not given)
[in] Lowest melting point? choose 1 or 2 In your reply, give the label of the chosen option.
[out] 1
(1: 83 °C, 2: 136 °C)

====

Known melting point of a selection of compounds

Some solved entries appear below for comparison.
Compound | Readout | Assay result
CC(C)(C)OC(=O)N1CCC(c2c[nH]c3ccc(N)cc23)CC1 | melting point | 205 to 207 °C
NCCN1CCC(Nc2nc3ccccc3n2Cc2ccc(CO)o2)CC1 | melting point | 165 °C
Cc1nc(-c2ccccc2)cc(-c2cccc(C=O)c2)c1C(=O)NCCN1CCOCC1 | melting point | 122 to 125 °C
CC(C)(C)OC(=O)N(OCc1ccccc1)C(=O)OC(C)(C)C | melting point | 77.5 to 78.5 °C
COc1cc(CCCCC2OC(=O)NC2=O)ccc1OCc1coc(/C=C/c2ccccc2)n1 (centres undefined) | melting point | 171 to 172 °C
CCOC(=O)c1c(N2CCN(C(=O)c3cccs3)CC2)c2ccccc2[nH]c1=O | melting point | 198 °C
Clc1ccc(CCN2CCC3(CC2)Oc2ccccc2Cn2cccc23)cc1 | melting point | 116 to 118 °C
NC(=O)[C@H]1CN(c2ccc(C3=NNC(=O)CS3)c(F)c2)C(=O)O1 | melting point | 249 to 251 °C
CC(C)(C)c1ccc(C(=O)Nc2cn3cc(-c4ccsc4)ccc3n2)cc1 | melting point | 261 to 263 °C
CC(C)(CO)CCCCC(CCCCC(C)(C)CO)(C(=O)O)C(=O)O | melting point | 178 to 180 °C

[in] Would you kindly share the measured melting point for CCCc1nc2c(C#N)ncc(C)c2[nH]1 ?
[out] 239 to 242 °C

[in] Any idea what melting point was measured for CCOc1ccc(C(=O)O)c(Cl)n1 ?
[out] 185 to 188 °C

[in] GET /values?readout=melting point&item= c1ccc(N2CCN(c3nc4cccc5c4n3CCC5)CC2)cc1
[out] 168 to 169 °C

[in] Param item = Cc1cc(OCc2ccccc2)ccc1C(=O)O ; retrieve measured melting point.
[out] 126 to 129 °C

[in] Item under review: C[C@@H](n1ncn(-c2ccc(-n3cncn3)cc2)c1=O)[C@](O)(Cn1cncn1)c1ccc(F)cc1F . Reported melting point?
[out] 182 to 184 °C

[in] Looking for the measured melting point of O=C1CC=Nc2cc3c(cc21)OCO3 , can you help?
[out] 276 °C

[in] Consider the compound shown here: CCCCN(CCCC)CCOc1ccc(C(=O)c2c(CC)cc3ccccn23)cc1 What is its recorded melting point?
[out] 116 °C

[in] // lookup melting point for CC1(c2ccc([N+](=O)[O-])cc2)C(=O)Nc2cc(Cl)cc(Cl)c2C1=O (centres undefined)
[out] 264 to 265 °C

[in] If you can, please state the reported melting point value of COC(=O)C(=Cc1cccc(-c2ccc(Cl)cc2)c1)NC(C)=O .
[out] 168 °C

[in] Look up melting point: COc1ccc(CC(NC(=O)OC(C)(C)C)C(=O)O)cc1 (centres undefined)
[out] 94 to 96 °C

[in] What measured melting point goes with CC#Cc1ccc(-c2ccc(-c3ccc(CCCCC)cc3)c(F)c2F)cc1 ?
[out] 103 °C

[in] Endpoint output: melting point of O=C(O)C=CC1(Cc2ccccc2)C=CC=C(c2ccccc2)C1 (centres undefined) . Value?
[out] 165 to 174 °C

[in] Look up melting point: CCOC(=O)CCCCCOc1ccc(-c2ccccc2)c(-c2ccccc2)n1
[out] 85 to 87 °C
